All values here come from PubChem BioAssay AID1117319.

Entries and their inhibition values follow.
Target Or System: Virion infectivity factor (Human immunodeficiency virus type 1 group M subtype B (isolate BH10)) + Virion infectivity factor (Human immunodeficiency virus type 1 group M subtype B (isolate BRU/LAI)) + Virion infectivity factor (Human immunodeficiency virus type 1 group M subtype B (isolate PCV12)) + Virion infectivity factor (Human immunodeficiency virus type 1 group M subtype B (isolate HXB2)) + DNA dC->dU-editing enzyme APOBEC-3G (Homo sapiens) (UniProt P69720+P69721+P69722+P69723+Q9HC16)
Procedure Summary: inhibitors of Vif binding to APOBEC3G peptide, primary screen, biochemical, TR-FRET, GST-Vif 1-94, biotin-A3G peptide, dose response retest (AID 1117319);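 note: Vif residues 1-94 fused to GST binding biotinylated APOBEC3G peptide 110-148; 0% = full assay without inhibitor and 100% = GST in place of GST-Vif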
Recorded Conditions: active compounds read high
Hit rate of the full screen: of about 260,000 compounds, about 1,500 (0.58%) were called active. Another 5% or so got no clear call; they are omitted. These entries were drawn from the full list. Entries with a potency or affinity are not part of this list.
Answer format: numeric, % implied, no suffix.

C=CC[C@@H](CC(=O)N[C@H](CO)Cc1ccccc1)C(=O)N[C@@H](COC(=O)[C@@H](CC=C)CC(=O)OC(C)(C)C)Cc1ccccc1; -0.04
O=C(NCCN1CCN(c2ccccc2)CC1)C1CCN(S(=O)(=O)c2cccc3nsnc23)CC1; -4.91
N=C1/C(=C\c2ccc(SCc3ccccc3)o2)C(=O)N=C2SC=NN12; 1.67
Cc1nc(SCC(=O)c2ccc(F)c(F)c2)[nH]c(=O)c1Oc1ccc(F)cc1; -1.47

Input: Using known records, supply inhibition for CC(OC(=O)c1ccc(Cl)nc1)C(=O)NC1(C#N)CCCCC1 (configuration not stated)
Output: 2.48

Input: Tell me measured inhibition for `CCOC(=O)C1(Cc2cccc(OC)c2)CCN(Cc2ccc(C)s2)CC1` please.
Output: 11.4

Input: Output measured inhibition for this item: `CC(=O)N1CCN(C(=O)c2ccc(Oc3ccccc3)cc2)CC1`
Output: -9.55

Input: Give reported inhibition value for O=C1Nc2ccccc2C(=O)C1(Cl)Cc1ccccc1 (configuration not stated)
Output: 2.05

Input: Provide inhibition value for the following compound: `CC(=O)Nc1ccc(NC(=O)Cn2cc3c(n2)CCCC3)cc1`
Output: -2.34

Input: Please report inhibition for the following compound: `COC(=O)Cn1ncc2c3ccccc3n(C)c2c1=O`
Output: 4.81

Input: Supply reported inhibition belonging to this compound: `N=C1/C(=C\c2ccc(SCc3ccccc3)o2)C(=O)N=C2SC(CC(=O)N3CCOCC3)=NN12`
Output: 18.9

Input: Report inhibition, nothing else, for this compound: `N=C1/C(=C\c2ccc(OC(=O)c3ccco3)cc2)C(=O)N=C2SC=NN12`
Output: 2.2

Input: Give the reported inhibition for this compound. `CC1(C)N=C(c2ccc(Cl)cc2)C(=O)N1`
Output: -0.69

Input: // Input: `Oc1ccc(C=NC2CCCCC2)c(O)c1` . Output its inhibition only.
Output: 21.7

Input: Give the measured inhibition for `CNc1nc(C)c(C(=O)c2ccc(Cl)cc2)s1`
Output: -4.16

Input: Retrieve inhibition measured for `CCC1=NN2C(=N)/C(=C\c3cccn3-c3ccc(Cl)cc3)C(=O)N=C2S1` and print it.
Output: 0.75

Input: Check the records and state inhibition for `O=C(NCCc1ccccc1)C1CCN(S(=O)(=O)c2cccc3nonc23)CC1`
Output: -0.8

Input: Give a short answer stating reported inhibition for `CC1=NN2C(=N)/C(=C\c3ccc(SCc4ccccc4)o3)C(=O)N=C2S1` .
Output: 26.3

Input: For `NS(=O)(=O)c1ccc(NC(=S)N2CCN(c3ccc(Cl)c(Cl)c3)CC2)cc1` , write its inhibition.
Output: -1.39

----------
Target Or System: Virion infectivity factor (Human immunodeficiency virus type 1 group M subtype B (isolate BH10)) + Virion infectivity factor (Human immunodeficiency virus type 1 group M subtype B (isolate BRU/LAI)) + Virion infectivity factor (Human immunodeficiency virus type 1 group M subtype B (isolate PCV12)) + Virion infectivity factor (Human immunodeficiency virus type 1 group M subtype B (isolate HXB2)) + DNA dC->dU-editing enzyme APOBEC-3G (Homo sapiens) (UniProt P69720+P69721+P69722+P69723+Q9HC16)
Procedure Summary: inhibitors of Vif binding to APOBEC3G peptide, primary screen, biochemical, TR-FRET, GST-Vif 1-94, biotin-A3G peptide, dose response retest (AID 1117319);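 note: Vif residues 1-94 fused to GST binding biotinylated APOBEC3G peptide 110-148; 0% = full assay without inhibitor and 100% = GST in place of GST-Vif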
Recorded Conditions: active compounds read high
In all, about 260,000 compounds went through this assay and about 1,500 (0.58%) were called active. Inconclusive results (about 5%) are left out. These entries were drawn from the full list. Entries with a potency or affinity are not part of this list.
Metric: inhibition (%)
Entry rule: numbers only, all in %.

Example compounds with recorded inhibition:
Cc1ccc(-n2nnnc2SCC(=O)c2cc(C)n(CC3CCCO3)c2C)cc1 (stereo not given); -3.58
CCOc1ccc(/C=C/C(=O)Nc2ccc(N3CCOCC3)cc2)cc1; 3.96
CCN(CC)S(=O)(=O)c1ccc(/C=C/C(=O)Nc2ccccc2N2CCOCC2)cc1; 28.5
COc1ccc(CCn2c(C)cc(C(=O)CSc3nnnn3C)c2C)cc1; 26.9
Cc1cc(C(=O)CSc2nnnn2C)c(C)n1CCc1ccc(F)cc1; 15.4

Input: Determine its reported inhibition: `CCn1c(C(=O)O)c(S(=O)(=O)c2ccc(Cl)cc2)c2ccccc21`
Output: -1.5

Input: Query inhibition for O=C(O)c1cc2n(n1)C(C(F)(F)F)CC(c1ccco1)N2 (stereo not given)
Output: 23.7

Input: Read off the recorded inhibition for `Cc1nc(Nc2ccc(Cl)c(Cl)c2)sc1C(/C=C/c1ccc2c(c1)OCO2)=NNc1ccc([N+](=O)[O-])cc1[N+](=O)[O-]`
Output: 0.47

Input: Return inhibition (reported value) for this compound: Cc1ccc(C2N(c3ccccc3)C(=S)N3CCCN23)cc1 (stereo not given)
Output: 19.3

Input: # return recorded inhibition for entry `Cc1ccc(/C=c2\sc3n(c2=O)CN(c2cccc(Br)c2)CN=3)o1`
Output: 27.7

----------
inhibition by entry:
Target Or System: Virion infectivity factor (Human immunodeficiency virus type 1 group M subtype B (isolate BH10)) + Virion infectivity factor (Human immunodeficiency virus type 1 group M subtype B (isolate BRU/LAI)) + Virion infectivity factor (Human immunodeficiency virus type 1 group M subtype B (isolate PCV12)) + Virion infectivity factor (Human immunodeficiency virus type 1 group M subtype B (isolate HXB2)) + DNA dC->dU-editing enzyme APOBEC-3G (Homo sapiens) (UniProt P69720+P69721+P69722+P69723+Q9HC16)
Procedure Summary: inhibitors of Vif binding to APOBEC3G peptide, primary screen, biochemical, TR-FRET, GST-Vif 1-94, biotin-A3G peptide, dose response retest (AID 1117319);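 note: Vif residues 1-94 fused to GST binding biotinylated APOBEC3G peptide 110-148; 0% = full assay without inhibitor and 100% = GST in place of GST-Vif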
Recorded Conditions: active compounds read high
Out of some 260,000 compounds screened, about 1,500 (0.58%) were called active. Roughly 5% stayed inconclusive and do not appear here. The list is a sample of the results. Measured potencies and affinities stand elsewhere.
Answer format: numeric, % implied, no suffix.

Input: Provide measured inhibition value, entry: `N#CC(C#N)=C1C(=O)N(CCN2CCOCC2)c2ccccc21`
Output: 19.1

Input: Determine its reported inhibition: `O=C1c2ccccc2C(=O)N1CCCCON1C(=O)c2ccccc2C1=O`
Output: -9.96

Input: Give the reported inhibition for this molecule. `O=c1c2nnn(Cc3ccccc3)c2ncn1C/C=C/c1ccccc1`
Output: -0.52

Input: Quick one: give measured inhibition for `N#Cc1cnc(N)c(Br)c1`
Output: -0.24

Input: Give inhibition for COc1cc(C2c3c([nH]c(=O)[nH]c3=O)Nc3ccc4ccccc4c32)cc(OC)c1OC (centres undefined)
Output: 1.71

Input: Return inhibition (reported value) for this molecule: `CCc1ccc(N(CC)C(=O)Cc2c(C(=O)O)n(C)c3ccccc23)cc1`
Output: 3.87

Input: In one line, give reported inhibition of the entry `O=C(CC12CC3CC(CC(C3)C1)C2)NCc1ccccc1` .
Output: 0.11

Input: Using known records, supply inhibition for `CC1=CC(C)(C)Nc2ccc(OC(=O)c3ccco3)cc21`
Output: 16.4

Input: Could you please provide reported inhibition for `CC1=CC(C)(C)Nc2ccc(OC(=O)CN3C(=O)c4ccccc4C3=O)cc21` ? Thanks!
Output: 19.2

Input: Provide only the value of recorded inhibition for CCN=C1SC(CC(N)=O)C(=O)N1CC (centres undefined)
Output: 9.83

Input: Tell us which inhibition value is on record for COc1ccc(CCN2CC(C(=O)N(C)CCn3nc(C)cc3C)CCC2=O)cc1 (centres undefined)
Output: 6.02

Input: Answer with the recorded inhibition of `CCc1ccc(NC(=O)CSCc2ccc(C(=O)O)cc2)cc1` only.
Output: 2.67

Input: Provide inhibition value for the following molecule: FC(F)(F)c1ccc2c(c1)NCC1CCCN21 (centres undefined)
Output: 32.5

Input: Let me know recorded inhibition for `O=C(COC(=O)Cn1cnc2ccccc2c1=O)NCc1ccccc1` , thanks.
Output: -5.43

Input: Specify inhibition for COc1cccc(NC(=O)CN(C)C(=O)CN2C(=O)NC(C)(c3ccc4ccccc4c3)C2=O)c1 (centres undefined) and stop.
Output: 9.34
